B1: DYRK1B (parent)
chain: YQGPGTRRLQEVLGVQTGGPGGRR

Variants of: B1
Test: protein stability index of a GFP-peptide fusion (GPS, HEK-293T) (PSI 1-6); higher = more stable;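 also: lentivirally expressed fusions sorted by FACS into six bins by GFP to DsRed ratio, PSI derived from sequencing read proportions per bin multiplied by bin number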
Details: c terminus: a fixed tail appended
Metric name: protein stability index
Please give only the number in your answer, with no unit.

**Query** Which value of protein stability index has been reported for E11S in the records?
**Result** 3

**Query** // repeat for R24T and report
**Result** 3.02

**Query** And for V12K ?
**Result** 2.33

**Query** // repeat for G21M and report
**Result** 3.48

**Query** Also need L9R , thanks.
**Result** 3.9

**Query** Again, but for Q2N
**Result** 2.26

**Query** What would you report for V12S ?
**Result** 3.19

**Query** Now give it for R24V too.
**Result** 3.54

**Query** Follow-up entry: T6F
**Result** 2.88

**Query** Same for Q2S
**Result** 1.83

**Query** Okay, and R24M ?
**Result** 2.5

**Query** Moving on to the next variant: T17A
**Result** 3.27

**Query** Proceed to G14N
**Result** 4.25

**Query** // same read-out, input: Q2E
**Result** 4.23

**Query** Thanks! And R24D ?
**Result** 3.51

**Query** Moving on to the next variant: R23P
**Result** 3.26

**Query** Entry V12N please
**Result** 3.81

**Query** Can you handle P20R next?
**Result** 3.39

**Query** Next: R7K
**Result** 3.06

**Query** Input E11F
**Result** 1.51

**Query** Query P4H next
**Result** 2.79

**Query** And R24H ?
**Result** 3.17

**Query** Queued: Y1Q
**Result** 4.04

**Query** Next record, please: R23V
**Result** 2.88

**Query** Proceed to G22V
**Result** 2.95

**Query** One more variant: R7S
**Result** 3.45

**Query** // same read-out, input: G19N
**Result** 3.05

**Query** Field entry: Q16G
**Result** 3.42

**Query** And then P4L , what is it?
**Result** 2.39

**Query** For G5D then?
**Result** 3.69

**Query** Follow-up item: P4V
**Result** 3.14

**Query** Try this variant too: R24N
**Result** 3.43

**Query** Field entry: G18P
**Result** 2.84

**Query** Same for G19W
**Result** 2.14

**Query** What do you get for Y1D ?
**Result** 4.91

**Query** Try this variant next: T17M
**Result** 3.24

**Query** Query Q10N next
**Result** 3.85

**Query** Also G22H ?
**Result** 3.29

**Query** Next variant up: P4D
**Result** 2.81

**Query** And for Q10V ?
**Result** 2.52

**Query** Moving on to G3H
**Result** 3.81

**Query** Next variant up: L13V
**Result** 3.68

**Query** // repeat for T17L and report
**Result** 3.3

**Query** Same question, Y1F this time
**Result** 3.84

**Query** Queued: G22Q
**Result** 3.48

**Query** Please do the same for G22N as well.
**Result** 3.44

**Query** Similarly, V12H ?
**Result** 3.66

**Query** What about L9F ?
**Result** 2.67

**Query** Consider next the variant E11I in the same way.
**Result** 1.97

**Query** // repeat for Q2L and report
**Result** 2.5

**Query** // repeat for R8S and report
**Result** 3.73

**Query** What do you have for V12L ?
**Result** 3.19

**Query** Then what about the variant V15N ?
**Result** 3.81

**Query** Now consider V15Q and answer again.
**Result** 4

**Query** Then what about the variant G19Q ?
**Result** 3.05

**Query** # iterate: V15F
**Result** 3.62

**Query** And R23W ?
**Result** 2.22

**Query** Moving on to T6Q
**Result** 3.4

**Query** Request: G3A
**Result** 3.31

**Query** Entry to check: Y1P
**Result** 5.36

**Query** One more variant: Y1I
**Result** 4.33

**Query** Similarly, R8P ?
**Result** 3.49

**Query** Could you do the same for V12P , please?
**Result** 3.69

**Query** // next record G21Y
**Result** 2.68

**Query** Also check L9H
**Result** 2.81

**Query** Moving on to the next variant: L13E
**Result** 4.44

**Query** Subsequent entry: R8L
**Result** 1.91

**Query** Same read-out for G3M ?
**Result** 3.03

Attribution: the supplement of paper PMC10567573
